B1: WEE1 (parent)
chain: FISRTSIPNAASEEGDEDDWASNK

Variants of: B1
MEASUREMENT DESCRIPTION: protein stability index of a GFP-peptide fusion (GPS, HEK-293T) (PSI 1-6); higher = more stable;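 further: lentivirally expressed fusions sorted by FACS into six bins by GFP to DsRed ratio, PSI derived from sequencing read proportions per bin multiplied by bin number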
MEASUREMENT PARAMETERS: c terminus: a fixed tail appended
RECORDED ENDPOINT: protein stability index
Format: numeric value only, no unit, no commentary.

The examples below pair each entry with its known result.
Request: Given `G15Q` , state its recorded protein stability index.
Response: 3.78

Request: Given `D16C` , state its recorded protein stability index.
Response: 3.74

API: the following record is the query input.
Request: Given `E17P` , state its recorded protein stability index.
Response: 3.37

The measured values listed here are drawn from the supplement of paper PMC10567573.
